- measurement notes: Quantification of ligand trans and cis isomers in solution by NMR
- Type: physicochemical
- condition notes: free ligand in solution
- Text: We next evaluated the impact of thioamide substitutions to the n → π^∗ interaction in the ligand free state in solution. This interaction is only possible when the Hyp (thio)amide group is in the trans isomer conformation (Fig. 1A). Thus, the ratio between the trans and cis isomers at equilibrium can be used to infer the strength of the n → π^∗ interaction.[13] Quantification of ligands trans and cis isomers in solution.
Reported trans:cis (%) - cis isomer is given for each of the following compounds.
observation type: trans:cis (%) - cis isomer

compound: CC(=O)N[C@@H](C)C(=O)N1C[C@H](O)C[C@H]1C(=O)NCc1ccc(-c2scnc2C)cc1 [compound 1]
unit annotation: %
number: 8

compound: CC(=O)N[C@@H](C)C(=S)N1C[C@H](O)C[C@H]1C(=S)NCc1ccc(-c2scnc2C)cc1 [compound 4]
unit annotation: %
number: 10

compound: CC(=O)N[C@@H](C)C(=O)N1C[C@H](O)C[C@H]1C(=S)NCc1ccc(-c2scnc2C)cc1 [compound 2]
unit annotation: %
number: 11

compound: CC(=O)N[C@@H](C)C(=S)N1C[C@H](O)C[C@H]1C(=O)NCc1ccc(-c2scnc2C)cc1 [compound 3]
unit annotation: %
number: 6

---

- measurement notes: Quantification of ligand trans and cis isomers in solution by NMR
- Type: physicochemical
- condition notes: free ligand in solution
observation type: trans:cis (%) - trans isomer

given smiles: CC(=O)N[C@@H](C)C(=S)N1C[C@H](O)C[C@H]1C(=S)NCc1ccc(-c2scnc2C)cc1
observation type: trans:cis (%) - trans isomer
number: 90
//
given smiles: CC(=O)N[C@@H](C)C(=O)N1C[C@H](O)C[C@H]1C(=S)NCc1ccc(-c2scnc2C)cc1
observation type: trans:cis (%) - trans isomer
number: 89
//
given smiles: CC(=O)N[C@@H](C)C(=S)N1C[C@H](O)C[C@H]1C(=O)NCc1ccc(-c2scnc2C)cc1
observation type: trans:cis (%) - trans isomer
number: 94
//
given smiles: CC(=O)N[C@@H](C)C(=O)N1C[C@H](O)C[C@H]1C(=O)NCc1ccc(-c2scnc2C)cc1
observation type: trans:cis (%) - trans isomer
number: 92

---

- target system: VBC protein (VHL, elongin B, elongin C) (Homo sapiens)
- Construct: made in house
- measurement notes: Competitive fluorescence polarization (FP) binding assay displacing FAM-labelled HIF-1α peptide
- condition notes: text summary of FP and ITC; read-out: Kd
observation type: Kd

given smiles: CC(=O)N[C@@H](C)C(=S)N1C[C@H](O)C[C@H]1C(=S)NCc1ccc(-c2scnc2C)cc1
result: > 10 µM

---

- target system: VBC protein (VHL, elongin B, elongin C) (Homo sapiens, UniProt P40337)
- Construct: made in house
- measurement notes: Competitive fluorescence polarization (FP) binding assay displacing FAM-labelled HIF-1α peptide
- condition notes: back-calculated from measured IC50; 15 nM VBC, 10 nM FAM-HIF-1α peptide, pH 7; read-out: Kd FP
- Description: Control wells contained VBC and peptide in the absence of compound (maximum signal), and peptide in the absence of protein (background signal). Data were obtained in triplicate and the percentage of displacement was determined and graphed against log[VHL inhibitors]. Average IC50 values and the standard error of the mean (SEM) were determined for each titration using Prism 6. […]

given smiles: CC(=O)N[C@@H](C)C(=S)N1C[C@H](O)C[C@H]1C(=O)NCc1ccc(-c2scnc2C)cc1
unit annotation: nM
censor symbol: =
Kd: 1000
//
given smiles: CC(=O)N[C@@H](C)C(=S)N1C[C@H](O)C[C@H]1C(=S)NCc1ccc(-c2scnc2C)cc1
unit annotation: nM
censor symbol: >
Kd: 13000
